# TARGET SYSTEM: RET (human)
# ASSAY PROCEDURE: Caliper, Mobility shift assay off-chip
# EXPERIMENTAL PARAMETERS: compound 0.2 µM
Each entry below lists one item and its recorded inhibition value.
Write the numeric value and follow it with the unit.

Recorded inhibition, per entry:
# MOLECULAR STRING, inhibition
data = [
    ("CNC(=O)c1cc(Oc2ccc(NC(=O)Nc3ccc(Cl)c(C(F)(F)F)c3)cc2)ccn1", "101%"),
    ("CCN(CC)CCNC(=O)c1c(C)[nH]c(/C=C2\\C(=O)Nc3ccc(F)cc32)c1C", "99.2%"),
    ("Cc1ccc(Nc2nccc(N(C)c3ccc4c(C)n(C)nc4c3)n2)cc1S(N)(=O)=O", "82.1%"),
]

Continue with the next compound.
Consider the compound `COc1cc2c(Oc3ccc4[nH]c(C)cc4c3F)ncnc2cc1OCCCN1CCCC1` and give its measured inhibition.
98.7%

###

# TARGET SYSTEM: DCLK2 (human)
# ASSAY PROCEDURE: Caliper, Mobility shift assay off-chip
# EXPERIMENTAL PARAMETERS: compound 0.02 µM
PROPERTY MEASURED: inhibition (%)
Field format: number, assumed %, no unit text.

Recorded inhibition, per entry:
# MOLECULAR STRING, VALUE UNIT, inhibition
data = [
    ("CNC(=O)c1cc(Oc2ccc(NC(=O)Nc3ccc(Cl)c(C(F)(F)F)c3)cc2)ccn1", "%", -2.7),
    ("CNC(=O)c1ccccc1Sc1ccc2c(/C=C/c3ccccn3)n[nH]c2c1", "%", -2.1),
    ("Cc1ccc(Nc2nccc(N(C)c3ccc4c(C)n(C)nc4c3)n2)cc1S(N)(=O)=O", "%", -1.2),
]

In the following, a different molecule is considered.
Endpoint output: inhibition of `COc1cc2c(Oc3ccc4[nH]c(C)cc4c3F)ncnc2cc1OCCCN1CCCC1` . Value?
-1.8

###

Entries and their inhibition
# TARGET SYSTEM: MAPKAPK3 (human)
# ASSAY PROCEDURE: Caliper, Mobility shift assay off-chip
# EXPERIMENTAL PARAMETERS: compound 0.02 µM
Write the numeric value and append its unit.

Example results:
# MOLECULAR STRING, TARGET SYSTEM, PROPERTY MEASURED, VAL
records = [
    ("Cc1ccc(Nc2nccc(N(C)c3ccc4c(C)n(C)nc4c3)n2)cc1S(N)(=O)=O", "MAPKAPK3 (human)", "inhibition", "2.3%"),
    ("CNC(=O)c1ccccc1Sc1ccc2c(/C=C/c3ccccn3)n[nH]c2c1", "MAPKAPK3 (human)", "inhibition", "-5.2%"),
    ("CNC(=O)c1cc(Oc2ccc(NC(=O)Nc3ccc(Cl)c(C(F)(F)F)c3)cc2)ccn1", "MAPKAPK3 (human)", "inhibition", "-6.2%"),
]

Now examine the next entry.
Can you look up inhibition on MAPKAPK3 (human) for `COc1cc2c(Oc3ccc4[nH]c(C)cc4c3F)ncnc2cc1OCCCN1CCCC1` ?
1.1%

###

# TARGET SYSTEM: MARK4 (human)
# ASSAY PROCEDURE: Caliper, Mobility shift assay off-chip
# EXPERIMENTAL PARAMETERS: compound 0.2 µM
PROPERTY MEASURED: inhibition (%)
The answer is to be given in %; state only the numeric part.

# MOLECULAR STRING, VALUE UNIT, inhibition
data = [
    ("COc1cc2c(Oc3ccc4[nH]c(C)cc4c3F)ncnc2cc1OCCCN1CCCC1", "%", -7.3),
    ("CNC(=O)c1cc(Oc2ccc(NC(=O)Nc3ccc(Cl)c(C(F)(F)F)c3)cc2)ccn1", "%", 1.6),
    ("Cc1ccc(Nc2nccc(N(C)c3ccc4c(C)n(C)nc4c3)n2)cc1S(N)(=O)=O", "%", -6.3),
]

Below: the item to evaluate.
For the compound shown here, `CCN(CC)CCNC(=O)c1c(C)[nH]c(/C=C2\C(=O)Nc3ccc(F)cc32)c1C` , give the reported inhibition.
76.3
